Tested on: trypsin
Experiment: Insulin digestion in immobilized enzyme reactor, buffer screening (Table 7)
Type: biochemical, porcine
Conditions: 0.5M; IMER, 70°C, 60 s
OUTCOME_MEASURE: Digested
# respond with the number and nothing more

Record excerpt, results attached:
Consider the compound shown here: [Ca+2].[Cl-].[Cl-] [CaCl2, calcium chloride] What is its recorded Digested?
3031625

Consider the compound shown here: [Cl-].[Na+] [NaCl] What is its recorded Digested?
2146822

More entries:
Consider the compound shown here: NC(N)=O [Urea] What is its recorded Digested?
1816572

---

System: trypsin
Test: Insulin digestion in immobilized enzyme reactor, buffer screening (Table 7)
Assay type: biochemical, porcine
Conditions: 5%; IMER, 70°C, 60 s
OUTCOME_MEASURE: Digested

Consider the compound shown here: CC#N [ACN, acetonitrile] What is its recorded Digested?
1344796

Consider the compound shown here: OCC(F)(F)F [TFE] What is its recorded Digested?
513982

Consider the compound shown here: NC=O [Formamide] What is its recorded Digested?
1424720

More entries:
Consider the compound shown here: OCC(O)CO [Glycerol] What is its recorded Digested?
2051870

Consider the compound shown here: CO [MeOH, methanol] What is its recorded Digested?
1511720
